Property: IC50; scope: individual molecules
TARGET: Guanine nucleotide-binding protein subunit alpha-11 (Homo sapiens, UniProt P29992)
Sequence (P29992 whole entry): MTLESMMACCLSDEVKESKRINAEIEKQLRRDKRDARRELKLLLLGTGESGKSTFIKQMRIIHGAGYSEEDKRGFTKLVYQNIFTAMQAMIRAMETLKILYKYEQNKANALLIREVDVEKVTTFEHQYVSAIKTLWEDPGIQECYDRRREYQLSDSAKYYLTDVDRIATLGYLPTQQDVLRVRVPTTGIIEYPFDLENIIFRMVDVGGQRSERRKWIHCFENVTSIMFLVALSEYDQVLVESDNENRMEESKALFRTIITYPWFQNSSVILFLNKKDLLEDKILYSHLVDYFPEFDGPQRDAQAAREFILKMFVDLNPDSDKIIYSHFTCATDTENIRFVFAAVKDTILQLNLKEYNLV
ASSAY_TEXT: Inhibition of recombinant human Gq/11 coupled N-terminal 3His-tagged M1 receptor expressed in CHOK1 cells assessed as reduction in carbachol-induced IP1 accumulation pretreated for 1 hr followed by carbachol addition and subsequent incubation for 1 hr at 37 degC measured after 15 mins at room temperature by HTRF assay

- RECORD_SMILES: "C=C1C(=O)N[C@@H](C)C(=O)N(C)[C@@H](C)C(=O)N[C@@H]([C@H](OC(=O)[C@@H](NC(C)=O)[C@H](O)C(C)C)C(C)C)C(=O)N(C)[C@@H]([C@@H](C)OC)C(=O)O[C@@H](C)[C@H](NC(C)=O)C(=O)O[C@H](Cc2ccccc2)C(=O)N1C"
  IC50: "> 50 µM"
- RECORD_SMILES: "CO[C@H](C)[C@H]1C(=O)O[C@H](C)[C@H](NC(C)=O)C(=O)O[C@H](CC(C)C)C(=O)N(C)[C@H](CO)C(=O)N[C@@H](C)C(=O)N(C)[C@@H](C)C(=O)N[C@@H]([C@H](OC(=O)[C@@H](NC(C)=O)[C@H](O)C(C)C)C(C)C)C(=O)N1C"
  IC50: "> 50 µM"
- RECORD_SMILES: "C=C1C(=O)N[C@@H](C)C(=O)N(C)[C@@H](C)C(=O)N[C@@H]([C@H](OC(=O)[C@@H](NC(C)=O)[C@H](O)C(C)C)C(C)C)C(=O)N(C)[C@@H]([C@@H](C)OC)C(=O)O[C@H](C)[C@H](NC(C)=O)C(=O)O[C@H](CC(C)C)C(=O)N1C"
  IC50: "3.69 µM"
- RECORD_SMILES: "C=C1C(=O)N[C@@H](C)C(=O)N(C)[C@@H](C)C(=O)N[C@@H]([C@H](OC(=O)[C@@H](NC(=O)CCCCC)[C@H](O)C(C)C)C(C)C)C(=O)N(C)[C@@H]([C@@H](C)OC)C(=O)O[C@H](C)[C@H](NC(C)=O)C(=O)O[C@H](Cc2ccccc2)C(=O)N1C"
  IC50: "0.88 µM"
